tested on: rodent lifetime carcinogenesis bioassay, tumor incidence TD50; assay: carcinogenic potency in animals, long-term in vivo studies, CPDB compilation (AID 1745844); details: mouse; strain Swiss albino; females; in drinking water; site: lung; lesion: angiosarcoma; dosed 93 weeks; study length 93 weeks
property: TD50 (mg/kg/day)
One number for each entry, in mg/kg/day.

For `NNCCc1ccccc1` , what is its reported TD50? 123

====

system: rodent lifetime carcinogenesis bioassay, tumor incidence TD50; test: carcinogenic potency in animals, long-term in vivo studies, CPDB compilation (AID 1745844); conditions: rat; strain Donryu; females; in drinking water; site: mammary gland; lesion: several types; types named in the paper; dosed 65 weeks; study length 65 weeks
property: TD50

Item `CCCCCN(N=O)C(N)=O` with rodent lifetime carcinogenesis bioassay, tumor incidence TD50 - TD50? 11.9 mg/kg/day

====

system: rodent lifetime carcinogenesis bioassay, tumor incidence TD50; experiment: carcinogenic potency in animals, long-term in vivo studies, CPDB compilation (AID 1745844); conditions: rat; strain F344/DuCrj; males; in feed; site: forestomach; lesion: squamous-cell papilloma; dosed 51 weeks; study length 51 weeks
property: TD50 (mg/kg/day)
Give bare numbers, in mg/kg/day.

For `COc1cccc(O)c1O` , what is its reported TD50? 425

====

test system: rodent lifetime carcinogenesis bioassay, tumor incidence TD50; experiment: carcinogenic potency in animals, long-term in vivo studies, CPDB compilation (AID 1745844); settings: rat; strain Wistar; both sexes; i.p.; site: liver; lesion: one or several types; types not named; dosed 26 weeks; study length 78 weeks
property: TD50 (mg/kg/day)
Answers are plain numbers, in mg/kg/day.

For `[N-]=[N+]=CC(=O)OC[C@H](N)C(=O)O` , what is its reported TD50? 3.02

====

tested on: rodent lifetime carcinogenesis bioassay, tumor incidence TD50; experiment: carcinogenic potency in animals, long-term in vivo studies, CPDB compilation (AID 1745844); conditions: rat; strain Fischer 344; males; in feed; site: kidney; lesion: adenocarcinoma; dosed 52 weeks; study length 52 weeks
property: TD50

For `CC(=O)Nc1ccc(-c2ccc(F)cc2)cc1` , what is its reported TD50? 1.01 mg/kg/day

====

test system: rodent lifetime carcinogenesis bioassay, tumor incidence TD50; assay: carcinogenic potency in animals, long-term in vivo studies, CPDB compilation (AID 1745844); details: rat; strain Sprague-Dawley; males; in feed; site: liver; lesion: liver-cell tumor, benign; dosed 105 weeks; study length 105 weeks
Active and inactive are the calls of the source. The rule behind the calls is not given here.
property: TD50

For `C/C(=C(\CCOC(=O)c1ccccc1)SC(=O)c1ccccc1)N(C=O)Cc1cnc(C)nc1N` , what is its reported TD50? 6980 mg/kg/day (inactive)

====

system: rodent lifetime carcinogenesis bioassay, tumor incidence TD50; experiment: carcinogenic potency in animals, long-term in vivo studies, CPDB compilation (AID 1745844); details: mouse; strain B6C3F1; females; by gavage; site: liver; lesion: hepatocellular adenoma; dosed 104 weeks; study length 104 weeks
property: TD50 (mg/kg/day)
Give bare numbers, in mg/kg/day.

Item COC1COC(OC2COC(OC3COC(OC4COC(OC)C(OS(=O)(=O)O)C4OS(=O)(=O)O)C(OC4OC(C(=O)O)C(OC)C(OS(=O)(=O)O)C4OS(=O)(=O)O)C3OS(=O)(=O)O)C(OS(=O)(=O)O)C2OS(=O)(=O)O)C(OS(=O)(=O)O)C1OS(=O)(=O)O (stereo unspecified) with rodent lifetime carcinogenesis bioassay, tumor incidence TD50 - TD50? 991
